The following compounds are shown together with reported IC50 values.
- target.entity: B-Raf kinase (SEQ. ID NO: 2) (Homo sapiens (Human))
- Sequence (P15056 416-766): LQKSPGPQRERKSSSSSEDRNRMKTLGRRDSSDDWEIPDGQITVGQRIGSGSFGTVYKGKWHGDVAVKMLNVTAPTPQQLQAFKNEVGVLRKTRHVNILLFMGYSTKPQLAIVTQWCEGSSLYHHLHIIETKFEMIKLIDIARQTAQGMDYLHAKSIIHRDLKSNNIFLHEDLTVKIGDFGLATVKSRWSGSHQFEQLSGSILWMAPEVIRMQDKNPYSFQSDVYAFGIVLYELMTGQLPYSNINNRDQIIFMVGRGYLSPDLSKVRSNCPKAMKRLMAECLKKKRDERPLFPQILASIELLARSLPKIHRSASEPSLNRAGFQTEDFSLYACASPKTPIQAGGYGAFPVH
- assay.method.text: Biochemical Assay for B-Raf (1)
- experimental.context: Table J, assay version (1); read-out: BRAF (1) IC50
- Procedure: Biochemical Assay for B-Raf (1) Activity of B-Raf kinase (SEQ. ID NO: 2) was determined spectroscopically using a coupled pyruvate kinase/lactate dehydrogenase assay that continuously monitors the ATP hydrolysis-dependent oxidation of NADH (e.g., Schindler et al., Science, 2000, 289, 1938-1942). […] Inhibition of B-Raf was measured by adding serial diluted test compound (final assay concentration of 1% DMSO). […] The reaction rate was calculated using the 4 to 5 h time frame. […]

1. Cc1ncc(NC(=O)c2cccc(C(F)(F)F)c2)cc1-c1cccc(-c2ccnc(NC(=O)CC#N)c2)c1 ... ≤ 0.1 µM
2. CNC(=O)c1cc(-c2cnnc(-c3cc(NC(=O)c4ccnc(C(C)(C)C#N)c4)ccc3C)c2)ccn1 ... 0.1 to 0.5 µM
3. CNC(=O)c1cc(-c2ccnc(-c3cc(NC(=O)c4ccnc(C(C)(C)C#N)c4)c(F)cc3C)n2)ccn1 ... 0.1 to 0.5 µM
4. Cc1ccc(NC(=O)c2ccnc(C(F)F)c2)cc1-c1ccnc(-c2ccnc(NC(=O)C3CC3)c2)n1 ... ≤ 0.1 µM

[ask] I have this compound here, Cc1ccc(NC(=O)c2ccnc(C(C)(C)C#N)c2)cc1-c1ccnc(-c2ccnc(NC(=O)C(C)(C)C)c2)c1 , and I need its recorded IC50.
[reply] 0.1 to 0.5 µM

[ask] Do the same for CNC(=O)c1cc(-c2cnnc(-c3cc(NC(=O)c4ccnc(C(F)(F)F)c4)cnc3C)c2)ccn1 please
[reply] 0.5 to 1 µM

[ask] Follow-up item: CNC(=O)c1cc(-c2cc(-c3cc(NC(=O)c4ccnc(C(F)F)c4)c(F)cc3C)cc(=O)n2C)ccn1
[reply] 1 to 10 µM

[ask] // next record Cc1ccc(NC(=O)c2cc(C(F)(F)F)ccn2)cc1-c1cncc(-c2ccnc(NC(=O)C3CC3)c2)n1
[reply] ≤ 0.1 µM

[ask] What about Cc1ncc(NC(=O)C2CCN(C)C2)cc1-c1nccc(-c2ccnc(NC(=O)C3CC3)c2)n1 (centres unmarked) ?
[reply] 1 to 10 µM

[ask] Another compound to check: CNC(=O)c1cc(-c2cnnc(-c3cc(NC(=O)c4ccnc(C5CC5)c4)cnc3C)c2)ccn1
[reply] 0.5 to 1 µM

[ask] What do you have for COC(=O)Nc1cc(-c2cnnc(-c3cc(NC(=O)c4ccnc(C(C)(C)C#N)c4)c(F)cc3C)c2)ccn1 ?
[reply] ≤ 0.1 µM

[ask] COC(=O)Nc1cc(-c2cc(-c3cc(NC(=O)c4ccnc(C(C)(C)F)c4)c(F)cc3C)ccn2)ccn1 ?
[reply] ≤ 0.1 µM

[ask] Now try Cc1ccc(NC(=O)c2ccnc(C(F)(F)F)c2)cc1-c1ccnc(-c2ccncc2)c1 .
[reply] ≤ 0.1 µM

[ask] Also, Cc1ccc(NC(=O)c2ccnc(C(C)(C)C#N)c2)cc1-c1cc(-c2ccnc3[nH]ccc23)cnn1 please.
[reply] ≤ 0.1 µM

[ask] Note, next up: COC(=O)Nc1cc(-c2cc(-c3cc(NC(=O)c4ccnc(C(C)(C)C#N)c4)cnc3C)ccn2)ccn1
[reply] ≤ 0.1 µM

[ask] Please give the result for Cc1ncc(NC(=O)c2ccnc(C(C)(C)C#N)c2)cc1-c1nccc(-c2ccnc3c2CC(=O)N3)n1 too.
[reply] 1 to 10 µM

[ask] Next record, please: Cc1ccc(NC(=O)c2ccnc(C(F)(F)F)c2)cc1-c1ccnc(-c2ccnc(NC(=O)CC#N)c2)c1
[reply] ≤ 0.1 µM

[ask] Continue with Cc1ncc(NC(=O)c2ccnc(C3CC3)c2)cc1-c1nccc(-c2ccnc(NC(=O)C3CC3)c2)n1
[reply] ≤ 0.1 µM

[ask] Same read-out for Cc1cc(F)c(NC(=O)c2ccnc(C(F)(F)F)c2)cc1-c1ccnc(-c2ccnc(NC(=O)CN(C)C)c2)c1 ?
[reply] ≤ 0.1 µM

[ask] Try this compound next: Cc1cc(F)c(NC(=O)c2ccnc(C(C)(C)C#N)c2)cc1-c1nccc(-c2ccnc(NC(=O)C3CC3)c2)n1
[reply] ≤ 0.1 µM

[ask] Quick one: Cc1ccc(NC(=O)c2ccnc(C(C)(C)C#N)c2)cc1-c1cncc(-c2cc(NC(=O)C3CC3)ncn2)c1
[reply] ≤ 0.1 µM

[ask] // repeat for Cc1nc(-c2ccnc(NC(=O)C3CC3)c2)cc(-c2cc(NC(=O)c3ccnc(C4CC4)c3)cnc2C)n1 and report
[reply] ≤ 0.1 µM

[ask] Proceed to COC(=O)Nc1cc(-c2cnnc(-c3cc(NC(=O)CC4CCCC4)cnc3C)c2)ccn1
[reply] 1 to 10 µM

Data origin, for the record: patent US12319655B2
